Entries and their measured inhibition follow.
- target entity: Neuropilin-1 (Homo sapiens) (UniProt O14786)
- Sequence (O14786 whole entry, looked up): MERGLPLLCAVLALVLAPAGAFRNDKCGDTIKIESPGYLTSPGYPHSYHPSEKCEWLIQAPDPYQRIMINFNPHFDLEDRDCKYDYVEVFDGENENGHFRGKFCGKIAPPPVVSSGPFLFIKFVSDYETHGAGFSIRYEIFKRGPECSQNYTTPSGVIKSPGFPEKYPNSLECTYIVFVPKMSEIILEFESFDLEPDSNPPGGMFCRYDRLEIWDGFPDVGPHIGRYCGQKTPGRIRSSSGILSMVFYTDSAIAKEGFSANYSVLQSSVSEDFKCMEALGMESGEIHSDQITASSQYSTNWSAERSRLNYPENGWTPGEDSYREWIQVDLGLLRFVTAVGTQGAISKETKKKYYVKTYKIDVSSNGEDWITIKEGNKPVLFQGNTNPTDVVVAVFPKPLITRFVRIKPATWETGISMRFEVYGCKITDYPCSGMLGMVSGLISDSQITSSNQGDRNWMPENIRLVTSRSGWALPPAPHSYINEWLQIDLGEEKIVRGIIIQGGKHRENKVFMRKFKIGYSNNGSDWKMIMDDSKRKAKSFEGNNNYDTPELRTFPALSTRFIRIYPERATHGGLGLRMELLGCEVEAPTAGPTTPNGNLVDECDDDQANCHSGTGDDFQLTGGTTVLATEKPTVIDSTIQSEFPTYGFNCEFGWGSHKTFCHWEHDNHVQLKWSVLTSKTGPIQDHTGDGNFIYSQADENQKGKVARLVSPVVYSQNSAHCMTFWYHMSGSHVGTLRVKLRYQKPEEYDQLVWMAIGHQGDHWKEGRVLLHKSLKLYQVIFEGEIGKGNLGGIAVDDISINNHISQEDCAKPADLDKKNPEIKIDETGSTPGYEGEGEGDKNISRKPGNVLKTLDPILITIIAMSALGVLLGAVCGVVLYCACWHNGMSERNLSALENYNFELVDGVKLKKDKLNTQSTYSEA
- test summary: NRP-1/CendR peptide interaction modulators – biochemical, fluorescence polarization, uHTS, primary screen (AID 602438)
- test conditions: FAM-RPARPAR peptide binding to NRP-1, fluorescence polarization; at 25 µM; hits give high values
In all, about 360,000 compounds went through this assay and about 3,100 (0.86%) were called active. Many of the other results were omitted from the sample, so actives are more common in it than they were.
Response body: numeric value in %, unit text excluded.

Field inhibition (entry `S=c1[nH]nc(Nc2ccccc2)s1` ) reads 0.6

What the record says about `OCC[C@H]1C[C@H](O)[C@@H](O)[C@]2(CCCCO2)O1` : inhibition is 28.3

The value of inhibition measured for the compound `COc1ccccc1-c1nnc2n1N=C(c1ccc(OC(F)F)c(OCC3CC3)c1)CS2` turned out to be 18.8

// inhibition value for COc1ccc(Cl)cc1NC(=O)C(C)N1CCc2ccccc21 (stereo not given) : 23.1

The compound `Cn1c(=O)c2c(nc(OCc3cccnc3)n2Cc2ccccc2)n(C)c1=O` showed inhibition equal to 28.5

inhibition recorded for this compound, `Cc1ccc(S(=O)(=O)NC(=O)c2cccc(C)c2)cc1` , is -0.5

Value of inhibition reported for the compound CC1CCCN(C(=O)c2ccc3c(c2)C(=O)N(CCC2=CCCCC2)C3=O)C1 (stereo not given) is 9.2
